Values from patent US20260151496A1

Task for the reader: assign each of the following binders its reported Max MFI.
# Target desc: T1, HER2 receptor on the surface of NCI-N87 cells (human, UniProt P04626 23-1255)
# T1 construct: whole, on cells; also called HER2 on tumor cell surface
# Protocol notes: flow cytometry on NCI-N87 cells, PE-labelled secondary antibody
Answers are plain numbers.

{"columns": ["Binder", "Max MFI"],
 "data": [
  ["HER2 VHH-FC1 fusion protein 2-C07 (Fc fusion, 25; also called 2-C07-FC1; chimeric nanobody 2-C07) AVQLVESGGGLVQPGGSLRLSCAASGLTFMRYDINWYRQAPGKERELVAALDSSSGRTNYADFTEGRFTISRNNAKNSAYLQMNNLKPEDTASYYCNAQWKRIGADYWGQGTQVTVFSEPKSSDKTHTCPPCPAPEFEGGPSVFLFPPKPKDTLMISRTPEVTCVVVDVSHEDPEVKFNWYVDGVEVHNAKTKPREEQYNSTYRVVSVLTVLHQDWLNGKEYKCKVSNKALPASIEKTISKAKGQPREPQVYTLPPSRDELTKNQVSLTCLVKGFYPSDIAVEWESNGQPENNYKTTPPVLDSDGSFFLYSKLTVDKSRWQQGNVFSCSVMHEALHNHYTQKSLSLSPGK", 241000]
]}

Turning now to a further record.
Input: Requested field: Max MFI. Item: HER2 VHH-FC1 fusion protein 2-F03 (Fc fusion, 25; also called 2-F03-FC1; chimeric nanobody 2-F03) EVQLVESGGGLVQPGGSLRLSCAASGLTFRRYHMSWYRQAPGKERELVAVISDTGTTNYAESVKGRFTISRDNSRSTVFLQLNSLKPDDTAVYYCNGRWPAVAADWWGQGTQVTVSSEPKSSDKTHTCPPCPAPEFEGGPSVFLFPPKPKDTLMISRTPEVTCVVVDVSHEDPEVKFNWYVDGVEVHNAKTKPREEQYNSTYRVVSVLTVLHQDWLNGKEYKCKVSNKALPASIEKTISKAKGQPREPQVYTLPPSRDELTKNQVSLTCLVKGFYPSDIAVEWESNGQPENNYKTTPPVLDSDGSFFLYSKLTVDKSRWQQGNVFSCSVMHEALHNHYTQKSLSLSPGK
Output: 234000
